Test: Plasma protein binding by equilibrium dialysis, rat plasma
Assay type: in vitro ADME
Details: Sprague Dawley, 1.00 µg/mL, equilibrium dialysis, read-out: protein binding degree (converted)
QUANTITY MEASURED: fraction unbound at 1 µg/mL
Answer with a bare number; do not write a unit.

Record CC[C@@]12CC(C(=O)OC)=C3Nc4cc5c(cc4[C@@]34CCN(C[C@H]3O[C@H]31)[C@@H]24)[C@@H]1C(O5)[C@@H](O)[C@@]2(CC)CC(C(=O)OC)=C3Nc4cc(OC)ccc4[C@@]34CCN1[C@@H]24 (stereo partly shown) [10-dehydroxyl-12-demethoxy-conophylline, 10-Dehydroxyl-12-demethoxy-conophylline] . Reported fraction unbound at 1 µg/mL: 0.181

All figures here come from paper PMC6359039.
